System: Ser. marcescens ES-75
Assay: Anti-bacterial activity (MIC), agar dilution
Assay type: cell-based
Settings: Serratia marcescens, ES75, 18 h, Ser. marcescens ES-75; agar dilution, about 10^6 CFU/ml, 18 hours, 37° C.; read-out: MIC
Provide the reported MIC of each item.

Exercise: Name the recorded MIC for NC(=O)c1cc[n+](C/C=C/C2=C(C(=O)[O-])N3C(=O)[C@@H](NC(=O)/C(=N\OCF)c4nsc(N)n4)[C@H]3SC2)cc1 .
Solution: 0.05 µg/mL

Exercise: Param item: Nc1nc(/C(=N/OCF)C(=O)N[C@@H]2C(=O)N3C(C(=O)[O-])=C(/C=C/C[N+]4(CCO)CCN(CCO)CC4)CS[C@H]23)ns1
Solution: 0.1 µg/mL

Exercise: Try this compound too: N#CC[N+]1(C/C=C/C2=C(C(=O)[O-])N3C(=O)[C@@H](NC(=O)/C(=N\OCF)c4nsc(N)n4)[C@H]3SC2)CCCC1
Solution: 0.05 µg/mL

Exercise: Here is the next compound: CC(=O)NCC[N+](C/C=C/C1=C(C(=O)[O-])N2C(=O)[C@@H](NC(=O)/C(=N\OCF)c3nsc(N)n3)[C@H]2SC1)(CCO)CCO
Solution: 0.05 µg/mL

Exercise: // same read-out, input: C[N+](C)(C/C=C/C1=C(C(=O)[O-])N2C(=O)[C@@H](NC(=O)/C(=N\OCF)c3nsc(N)n3)[C@H]2SC1)CC(=O)N(CCO)CCO
Solution: 0.4 µg/mL

Exercise: What about this compound? C[N+](C)(C/C=C/C1=C(C(=O)[O-])N2C(=O)[C@@H](NC(=O)/C(=N\OCF)c3nsc(N)n3)[C@H]2SC1)[C@H](CO)C(=O)NCO
Solution: ≤ 0.025 µg/mL

Exercise: # repeat for Nc1nc(/C(=N/OCF)C(=O)N[C@@H]2C(=O)N3C(C(=O)[O-])=C(/C=C/C[N+](CCO)(CCO)CCO)CS[C@H]23)ns1
Solution: 0.1 µg/mL

Exercise: Please give the result for NC(=O)C[N+]1(C/C=C/C2=C(C(=O)[O-])N3C(=O)[C@@H](NC(=O)/C(=N\OCF)c4nsc(N)n4)[C@H]3SC2)CCC(O)C1 (some centres unmarked) too.
Solution: ≤ 0.025 µg/mL

Exercise: For CC(O)C[N+](C)(C)C/C=C/C1=C(C(=O)[O-])N2C(=O)[C@@H](NC(=O)/C(=N\OCC#N)c3nsc(N)n3)[C@H]2SC1 (some centres unmarked) then?
Solution: 0.05 µg/mL

Exercise: // query: C[N+]1(C/C=C/C2=C(C(=O)[O-])N3C(=O)[C@@H](NC(=O)/C(=N\OCF)c4nsc(N)n4)[C@H]3SC2)CCN(S(N)(=O)=O)CC1
Solution: 0.05 µg/mL

Exercise: Note, next up: C[N+](C)(C/C=C/C1=C(C(=O)[O-])N2C(=O)[C@@H](NC(=O)/C(=N\OCF)c3nsc(N)n3)[C@H]2SC1)CC(N)=O
Solution: 0.1 µg/mL

Exercise: Please do the same for Nc1nc(/C(=N/OC(F)F)C(=O)N[C@@H]2C(=O)N3C(C(=O)[O-])=C(/C=C/C[n+]4ccc(C(=O)O)cc4)CS[C@H]23)ns1 as well.
Solution: 0.05 µg/mL

Exercise: Field entry: NC(=O)Cc1cccc[n+]1C/C=C/C1=C(C(=O)[O-])N2C(=O)[C@@H](NC(=O)/C(=N\OCF)c3nsc(N)n3)[C@H]2SC1
Solution: 0.05 µg/mL

Exercise: Next compound up: Nc1nc(/C(=N/OCF)C(=O)N[C@@H]2C(=O)N3C(C(=O)[O-])=C(/C=C/C[N+]4(CC(O)CO)CCCC4)CS[C@H]23)ns1 (single isomer, unassigned)
Solution: ≤ 0.025 µg/mL

Exercise: Lookup CN(C)C(=O)CC[N+](C)(C)C/C=C/C1=C(C(=O)[O-])N2C(=O)[C@@H](NC(=O)/C(=N\OCF)c3nsc(N)n3)[C@H]2SC1
Solution: 0.05 µg/mL

Exercise: Also CC(O)C[N+](C)(C)CC=CC1=C(C(=O)[O-])N2C(=O)C(NC(=O)C(=NOCF)c3nsc(N)n3)C2SC1 (centres unmarked) , if possible.
Solution: 0.05 µg/mL

Exercise: What do you get for C[C@@H](O)[C@@H](C(N)=O)[N+](C)(C)C/C=C/C1=C(C(=O)[O-])N2C(=O)[C@@H](NC(=O)/C(=N\OCC#N)c3nsc(N)n3)[C@H]2SC1 ?
Solution: 0.1 µg/mL

Exercise: Now give it for CC(C)(CO)[N+](C)(C)C/C=C/C1=C(C(=O)[O-])N2C(=O)[C@@H](NC(=O)/C(=N\OCF)c3nsc(N)n3)[C@H]2SC1 too.
Solution: 0.05 µg/mL

Exercise: // next record C[N+](C)(C/C=C/C1=C(C(=O)[O-])N2C(=O)[C@@H](NC(=O)/C(=N\OCC#N)c3nsc(N)n3)[C@H]2SC1)[C@@H](CO)C(N)=O
Solution: 0.1 µg/mL

Exercise: Follow-up item: CC(C(N)=O)[N+]1(C/C=C/C2=C(C(=O)[O-])N3C(=O)[C@@H](NC(=O)/C(=N\OCF)c4nsc(N)n4)[C@H]3SC2)CCCC1 (single isomer, unassigned)
Solution: ≤ 0.025 µg/mL

Exercise: Next: C[N+](C)(C/C=C/C1=C(C(=O)[O-])N2C(=O)[C@@H](NC(=O)/C(=N\OCF)c3nsc(N)n3)[C@H]2SC1)CC(=O)NCO
Solution: ≤ 0.025 µg/mL

Exercise: Try this compound next: Nc1nc(/C(=N/OCF)C(=O)N[C@@H]2C(=O)N3C(C(=O)[O-])=C(/C=C/C[N+]4(CCO)CCCC4)CS[C@H]23)ns1
Solution: 0.05 µg/mL

Exercise: Next up: CNC(=O)[C@@H](C)[N+](C)(C)C/C=C/C1=C(C(=O)[O-])N2C(=O)[C@@H](NC(=O)/C(=N\OCF)c3nsc(N)n3)[C@H]2SC1
Solution: ≤ 0.025 µg/mL
